Data credit: ChEMBL document CHEMBL1129487

test: Concentration in mouse blood 60 min post injection at a dose 240 mocromol/kg; format: ADME, organism-based; details: whole blood
valueKind: concentration at 1 h (ng/mL)
API: value field is a number in ng/mL; no unit string.

INPUT: Supply reported concentration at 1 h belonging to this compound: CO[C@H]1N(C2CC(N=[N+]=[N-])C(CO)O2)C(=O)NC(=O)[C@]1(C)Cl (stereo partly specified)
OUTPUT: 16300

====

species on record: Mus musculus; experiment: Distribution of analyte (pmol/mg) in mouse brain regions after Jugular Vein Injection into rest of the brain; type: ADME, organism-based; settings: in vivo, iv
Reported values of Distribution for individual entries

> print(dat)
                                   compound     valuekind  recordedresult
1  CO[C@H]1N(C2CC(N=[N+]=[N-])C(CO)O2)C(=O)NC(=O)[C@]1(C)Br (some centres not stated)  Distribution    0.71 pmol/mg

INPUT: Query Distribution for CCO[C@H]1N(C2CC(N=[N+]=[N-])C(CO)O2)C(=O)NC(=O)[C@]1(C)Br (some centres not stated)
OUTPUT: 0.83 pmol/mg

====

test: Partition coefficient for 1-octanol/water was evaluated; type: physicochemical
valueKind: Partition coefficient
The response must contain the number and no unit.

Known results for compounds:
> print(dat)
                                   compound  recordedresult
1  CO[C@H]1N(C2CC(N=[N+]=[N-])C(CO)O2)C(=O)NC(=O)[C@]1(C)I (some centres not stated)            10.6
2  CO[C@@H]1N(C2CC(N=[N+]=[N-])C(CO)O2)C(=O)NC(=O)[C@@]1(C)Br (some centres not stated)            16.7
3  CO[C@H]1N(C2CC(N=[N+]=[N-])C(CO)O2)C(=O)NC(=O)[C@@]1(C)Cl (some centres not stated)             3.3
4  CO[C@H]1N(C2CC(N=[N+]=[N-])C(CO)O2)C(=O)NC(=O)[C@]1(C)Cl (some centres not stated)             7.6
5  Cc1cn([C@H]2C[C@H](N=[N+]=[N-])[C@@H](CO)O2)c(=O)[nH]c1=O             1.3

INPUT: Specify reported Partition coefficient for the compound shown: CO[C@H]1N(C2CC(N=[N+]=[N-])C(CO)O2)C(=O)NC(=O)[C@]1(C)Br (some centres not stated)
OUTPUT: 13.2

INPUT: Consider the compound CO[C@@H]1N(C2CC(N=[N+]=[N-])C(CO)O2)C(=O)NC(=O)[C@@]1(C)I (some centres not stated) . State its measured Partition coefficient.
OUTPUT: 18.8

====

species: Mus musculus; assay: Thymidine Influx Inhibition constant for the compound in fresh Murine Erythrocytes
valueKind: pKi
Just the number, please; pKi means minus log10 of the concentration in mol/L.

> print(dat)
                                   compound  recordedresult
1  O=c1ccn([C@H]2C[C@H](O)[C@@H](CO)O2)c(=O)[nH]1            3.90

INPUT: Answer with the recorded pKi for the compound listed here: CO[C@@H]1N(C2CC(N=[N+]=[N-])C(CO)O2)C(=O)NC(=O)[C@@]1(C)I (stereo partly drawn)
OUTPUT: 3.70

INPUT: Please report the measured pKi for CO[C@H]1N(C2CC(N=[N+]=[N-])C(CO)O2)C(=O)NC(=O)[C@]1(C)Br (stereo partly drawn)
OUTPUT: 3.35

====

species on record: Mus musculus; test: Distribution of analyte (pmol/mg) in mouse brain regions after Jugular Vein Injection into pons and medulla; format: ADME, organism-based; details: in vivo, iv
valueKind: Distribution
Include the unit right after the number.

> print(dat)
                                   molecule     valuekind  recordedresult
1  CO[C@H]1N(C2CC(N=[N+]=[N-])C(CO)O2)C(=O)NC(=O)[C@]1(C)Br (some centres not stated)  Distribution    0.66 pmol/mg

INPUT: Identify measured Distribution associated with CCO[C@H]1N(C2CC(N=[N+]=[N-])C(CO)O2)C(=O)NC(=O)[C@]1(C)Br (some centres not stated)
OUTPUT: 0.62 pmol/mg

====

Each entry below lists one item and its recorded half-life value.
assay: Half-life for the compound after intravenous administration into BALB/c Mice in plasma samples.; format: ADME, organism-based; details: mouse
Number only, in min; omit the unit.

> print(dat)
                                   compound  valuekind  unitdescriptor  recordedresult
1  CO[C@H]1N(C2CC(N=[N+]=[N-])C(CO)O2)C(=O)NC(=O)[C@]1(C)I (stereo not given in full)  half-life             min            33.6

INPUT: For the compound CO[C@@H]1N(C2CC(N=[N+]=[N-])C(CO)O2)C(=O)NC(=O)[C@@]1(C)Br (stereo not given in full) , give its measured half-life value.
OUTPUT: 31.1

INPUT: Read the entry CO[C@@H]1N(C2CC(N=[N+]=[N-])C(CO)O2)C(=O)NC(=O)[C@@]1(C)I (stereo not given in full) and write its reported half-life.
OUTPUT: 149

INPUT: Find the measured half-life of Cc1cn([C@H]2C[C@H](N=[N+]=[N-])[C@@H](CO)O2)c(=O)[nH]c1=O [ZIDOVUDINE] and report it.
OUTPUT: 23.5

INPUT: Quickly give me recorded half-life for CO[C@H]1N(C2CC(N=[N+]=[N-])C(CO)O2)C(=O)NC(=O)[C@]1(C)Br (stereo not given in full)
OUTPUT: 41.8

====

assay: Concentration in mouse blood 90 min post injection at a dose 240 mocromol/kg; format: ADME; conditions: whole blood
valueKind: concentration at […] (ng/mL)
Supply the numeric figure in ng/mL, leaving out any unit text.

INPUT: Give reported concentration at […] value for CO[C@H]1N(C2CC(N=[N+]=[N-])C(CO)O2)C(=O)NC(=O)[C@]1(C)Cl (some centres not stated)
OUTPUT: 1100

====

species: Mus musculus; experiment: Distribution of analyte (pmol/mg) in mouse brain regions after Jugular Vein Injection into striatum; type: ADME, organism-based; conditions: in vivo, iv
valueKind: Distribution (pmol/mg)
# unit: pmol/mg | format: bare number

> print(dat)
                                   compound  recordedresult
1  CCO[C@H]1N(C2CC(N=[N+]=[N-])C(CO)O2)C(=O)NC(=O)[C@]1(C)Br (some centres not stated)            0.85

INPUT: Supply measured Distribution of CO[C@H]1N(C2CC(N=[N+]=[N-])C(CO)O2)C(=O)NC(=O)[C@]1(C)Br (some centres not stated) in your reply.
OUTPUT: 0.88

====

species on record: Mus musculus; assay: Distribution of analyte (pmol/mg) in mouse brain regions after Jugular Vein Injection into cerebellum; assay type: ADME, organism-based; settings: in vivo, iv
valueKind: Distribution (pmol/mg)
Note: unit pmol/mg is implicit; provide only the numeric part.

> print(dat)
                                   molecule  recordedresult
1  CO[C@H]1N(C2CC(N=[N+]=[N-])C(CO)O2)C(=O)NC(=O)[C@]1(C)Br (some centres not stated)            0.72

API: the following record is the query input.
INPUT: Answer with the recorded Distribution of CCO[C@H]1N(C2CC(N=[N+]=[N-])C(CO)O2)C(=O)NC(=O)[C@]1(C)Br (some centres not stated) only.
OUTPUT: 0.66

====

test system: Mus musculus; experiment: Pharmacokinetic parameter AUC for the compound after intravenous administration into BALB/c Mice in plasma samples.; type: ADME, organism-based; parameters: concentration or dose not given beside the values; conditions: in vivo
# maps each entry to its AUC

Please review the following examples before continuing.
> print(dat)
                                   compound  recordedresult
1  CO[C@@H]1N(C2CC(N=[N+]=[N-])C(CO)O2)C(=O)NC(=O)[C@@]1(C)Br (stereo not given in full)   13500 ng·h/mL
2  Cc1cn([C@H]2C[C@H](N=[N+]=[N-])[C@@H](CO)O2)c(=O)[nH]c1=O [ZIDOVUDINE]   11800 ng·h/mL
3  CO[C@H]1N(C2CC(N=[N+]=[N-])C(CO)O2)C(=O)NC(=O)[C@]1(C)Br (stereo not given in full)    6740 ng·h/mL
4  CO[C@@H]1N(C2CC(N=[N+]=[N-])C(CO)O2)C(=O)NC(=O)[C@@]1(C)I (stereo not given in full)    9820 ng·h/mL

Kindly consider the entry below.
INPUT: Supply AUC value. Item: CO[C@H]1N(C2CC(N=[N+]=[N-])C(CO)O2)C(=O)NC(=O)[C@]1(C)I (stereo not given in full)
OUTPUT: 12500 ng·h/mL
